assayed_target: Serine/threonine-protein phosphatase PP1-alpha catalytic subunit (Homo sapiens) (UniProt P62136)
Sequence (P62136 whole entry, looked up): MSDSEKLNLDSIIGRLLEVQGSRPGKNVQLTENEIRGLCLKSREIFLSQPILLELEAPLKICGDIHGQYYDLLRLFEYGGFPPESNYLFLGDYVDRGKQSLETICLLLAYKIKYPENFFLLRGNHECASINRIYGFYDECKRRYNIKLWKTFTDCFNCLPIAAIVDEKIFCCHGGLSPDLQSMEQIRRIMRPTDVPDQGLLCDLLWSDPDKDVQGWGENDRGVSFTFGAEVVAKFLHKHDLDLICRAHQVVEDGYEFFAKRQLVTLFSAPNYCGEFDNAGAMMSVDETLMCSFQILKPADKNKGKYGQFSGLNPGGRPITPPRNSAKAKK
assay: inhibition of human PP1 catalytic subunit – biochemical, fluorescence, OMFP substrate, single point, counter-screen for PP5 inhibitor project, primary screen (AID 2235)
protocol_conditions: purified PP1alpha, at 6.7 µM, active compounds read high
About 2,800 (0.88%) of roughly 320,000 compounds were called active. For the sample, actives were picked, then their nearest neighbours and some compounds at random.
Record form. Attribute: inhibition. Fill in for each entry.
One number for each entry, in %.

Some solved entries appear below for comparison.
• C=CCn1c(SCc2ccc(C(=O)NCCO)cc2)nc2ccccc2c1=O = 2.26
• c1ccc(C2CNCc3c2ccc2ccccc32)cc1 (stereo not given) = 3.78
• COc1cccc(N2CCN(c3ccc4nnc(CCC(=O)N5CCN(C)CC5)n4n3)CC2)c1 = -3.98
• Cc1ccc(CSc2nc(-c3ccccc3)c(C#N)c(=O)[nH]2)cc1 = 14.2

// moving on: another record for inhibition
Record CCn1cc(C(=O)NC2CCCCCC2)c(=O)c2cc(S(=O)(=O)N3CCCCC3)ccc21 , field inhibition: -1.18
